Tested on: transporters at major organ sites
Experiment: Prediction of transporter-mediated inhibition / DDI potential
Design: species or system human
Details: of 11 transporters; FDA criteria
RECORDED_ENDPOINT: No. of transporters at major organ sites inhibited at clinical concentrations
Answer field: number only, no words.

MOLECULE	ASSAY_RESULT
C[C@@H]1CCN(C(=O)CC#N)C[C@@H]1N(C)c1ncnc2[nH]ccc12	1
O=C1CCC(N2C(=O)c3ccccc3C2=O)C(=O)N1 (stereo not shown) [Thalidomide]	1
CCC(CC)COC(=O)[C@H](C)N[P@](=O)(OC[C@H]1O[C@@](C#N)(c2ccc3c(N)ncnn23)[C@H](O)[C@@H]1O)Oc1ccccc1	4
COc1ccc2cc1Oc1ccc(cc1)C[C@H]1c3cc(c(OC)cc3CCN1C)Oc1c(OC)c(OC)cc3c1[C@H](C2)N(C)CC3	1
CCCc1nn(C)c2c(=O)[nH]c(-c3cc(S(=O)(=O)N4CCN(C)CC4)ccc3OCC)nc12	4
CCCCc1nc(Cl)c(CO)n1Cc1ccc(-c2ccccc2-c2nn[nH]n2)cc1	4

Name the reported No. of transporters at major organ sites inhibited at clinical concentrations value associated with the molecule "CN(C)C(=O)COC(=O)Cc1ccc(OC(=O)c2ccc(NC(=N)N)cc2)cc1"
1
